Target: Cytochrome P450 2D6 (Homo sapiens)
Experiment: Cytochrome P450 Family 2 Subfamily D Member 6 (CYP2D6) small molecule antagonists: luciferase reporter qHTS assay (AID 1671196); also: nearly all actives have a fitted effect of over 50% in size; also: potency is read from the fitted curve at half-maximal effect
Settings: P450-Glo CYP2D6 enzyme assay, luciferin luminescence, 1 h; series mostly up to 115 µM
Inconclusive results are not listed. The source made the active and inactive calls. Calls follow the shape of the dose curve; as a rule, active = well fitted inhibition curve with a large enough effect in the repeat runs; inconclusive = weak or mixed curves; inactive = no such curve, though single readings can be large or run the other way.
Reported Endpoint: Potency

1. CCSC(=O)N(CC)C1CCCCC1 : inactive
2. N#CCBr : inactive
3. CC(C)[N+](=O)[O-] : inactive
4. CNNC : 65.4 µM (active)

---

Experiment: qHTS assay to identify small molecule antagonists of the estrogen receptor alpha (ER-alpha) signaling pathway using the BG1 cell line (AID 743080);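 also: BG1 cells stimulated with 17beta-estradiol alongside compound; nearly all actives have a fitted effect of over 25% in size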
Settings: BG1Luc4E2 ERE-luciferase antagonist mode, luminescence; series mostly up to 70.3 µM
Results filed as inconclusive are left out. Calls of active or inactive are those of the source. Calls come from the whole dose curve.
Select the correct class. Options are active, inactive and nothing else.

## Input Assay outcome for `CC1=C(C(=O)Nc2ccccc2)S(=O)(=O)CCO1` : what was it?
## Output active

## Input Assay outcome for CC(=O)CC(c1ccc(Cl)cc1)c1c(O)c2ccccc2oc1=O (centres undefined) : what was it?
## Output inactive

## Input Assay outcome for `Cc1ncc2n1-c1ccc(Cl)cc1C(c1ccccc1F)=NC2` : what was it?
## Output active

## Input Assay outcome for `CCCCc1ccc(O)cc1` : what was it?
## Output inactive

## Input Assay outcome for Cc1coc2c1CCC(C)C2 (centres undefined) : what was it?
## Output inactive

## Input Assay outcome for `CCCCOC(=O)[C@@H](C)Oc1ccc(Oc2ccc(C#N)cc2F)cc1` : what was it?
## Output inactive

## Input Assay outcome for `CCc1cc2c(s1)-n1c(C)nnc1CN=C2c1ccccc1Cl` : what was it?
## Output active

## Input Assay outcome for CCN(CC)C(C)C(=O)c1ccccc1 (centres undefined) : what was it?
## Output inactive

## Input Assay outcome for `ClCC(Cl)Cl` : what was it?
## Output inactive
